Attribution: ChEMBL document CHEMBL1201862

Kindly supply the reported GI50 values for the records listed here.
# Test system: UACC-257
# measurement.notes: NCI tumour cell line growth inhibition, 48 h
Calls of active or inactive are those of the source. Rule as the data show it: active = GI50 up to about 1.1 µM and inactive = higher.

In the examples that follow, each entry is paired with its recorded GI50.
{"compound": "CC1=CC=CC(C)(C)CC1(O[Si](C)(C)C)C(F)(F)F (stereo unspecified)", "assay.target": "UACC-257", "experimental.endpoint": "GI50", "measurement": "> 100 µM (inactive)"}
{"compound": "Oc1ccc(CCc2cc(O)cc(O)c2)cc1 [DIHYDRORESVERATROL]", "assay.target": "UACC-257", "experimental.endpoint": "GI50", "measurement": "> 100 µM (inactive)"}
{"compound": "Nc1ccc2nc3ccc(N)cc3[n+](-c3ccccc3)c2c1", "assay.target": "UACC-257", "experimental.endpoint": "GI50", "measurement": "9.27 µM (inactive)"}

I'm hoping you can list GI50 for every compound here, please.
1. COc1ccc(-c2cc(N3CCN(c4ccc(Cl)cc4)CC3)c(C#N)c(=O)o2)cc1
2. N#CCC(=O)Nn1c(CC#N)nnc1Cc1ccccc1
3. CC(=S)NNC(=O)c1ccncc1
4. O=C(NNCc1ccco1)c1cc2ccccc2[nH]1
5. C/C=C/c1cc(=O)c([C@@H]2OC(=O)c3cc(OC)cc(OC)c32)co1 [VERMISTATIN]
6. N#Cc1c2c(c(N)oc1=O)C(c1ccccc1)CC(=O)N2 (stereo unspecified)
7. CCOC(=O)/C=C\C(C#N)(C#N)/N=C/c1ccsc1

17.9 µM (inactive)
> 100 µM (inactive)
> 100 µM (inactive)
> 62.5 µM (inactive)
29.1 µM (inactive)
> 100 µM (inactive)
6.81 µM (inactive)

Determine from records and report GI50 for O=C(CSc1nc2ccc([N+](=O)[O-])cc2s1)c1ccc2ccccc2c1 > 100 µM (inactive)

====

Kindly supply the reported GI50 values for the records listed here.
# System: CAKI-1
# measurement.notes: NCI tumour cell line growth inhibition, 48 h
Calls of active or inactive are those of the source. No stated cut-off is given here; in the data, active = GI50 up to about 1.1 µM and inactive = higher.

{"compound": "CC(C)(C)OC(=O)CCC1NC(=O)[C@@H]2Cc3c([nH]c4ccccc34)C(c3ccccc3)N2C1=O (stereo not given in full)", "GI50": "29.2 µM (inactive)"}
{"compound": "NNC(=O)Cn1c2ccc(Br)cc2c2nc3ccccc3nc21", "GI50": "> 100 µM (inactive)"}

I'm hoping you can list GI50 for every compound here, please.
1. CCCCCCC(=O)OC[n+]1ccc(-c2c(COC(=O)NC(C)C)c(COC(=O)NC(C)C)c3n2CCC3)cc1
2. O=C1CC(C(=O)N2CCCCC2)n2c(=O)n(-c3ccccc3)c(=O)n2C1 (stereo not given)
3. O=C1c2cscc2C(=O)c2c(OCc3ccccc3)ccc(OCc3ccccc3)c21

["30.8 µM (inactive)", "> 100 µM (inactive)", "> 100 µM (inactive)"]

I'm hoping you can list GI50 for every compound here, please.
1. CC1(CO)C(O)CCC2(C)C1CCC1CC3CC12CCC3(O)CO (stereo not given)
2. CN1C(=O)CCC2[C@@H]3CC=C4C[C@@H](O)CC[C@]4(C)C3CC[C@@]21C (stereo not given in full)
3. COc1ccccc1OCC(=N/NC(=O)c1ccncc1)/N=C/c1cccnc1

1. 3.15 µM (inactive)
2. 50.2 µM (inactive)
3. > 100 µM (inactive)

I'm hoping you can list GI50 for every compound here, please.
1. N#CCC(=O)Nn1c(CC#N)nnc1Cc1ccccc1
2. COc1ccc(-c2cc(N3CCN(c4ccc(Cl)cc4)CC3)c(C#N)c(=O)o2)cc1

> 100 µM (inactive)
8.71 µM (inactive)
